I'd appreciate it if you could supply SETVI herbicidal rating values for the items below.
- Tested on: SETVI Foxtail, Green
- test.protocol: Preemergence herbicidal evaluation, SETVI
- Type: in vivo, Setaria viridis, (L.) Beau
- Parameters: scale not given here
- condition.label: preemergence, rate 0.032 kg/ha

Recall the recorded SETVI herbicidal rating for CCc1cccc(-n2nnc3cc(F)c(-n4c(=O)cc(C(F)(F)F)n(C)c4=O)cc32)c1 [Example 29] with SETVI Foxtail, Green and state it. 9.0

Recall the recorded SETVI herbicidal rating for COc1ccc(Cl)cc1-n1nnc2cc(F)c(-n3c(=O)cc(C(F)(F)F)n(C)c3=O)cc21 [Example 30] with SETVI Foxtail, Green and state it. 7.0

Recall the recorded SETVI herbicidal rating for COc1ccc(-n2nnc3cc(F)c(-n4c(=O)cc(C(F)(F)F)n(C)c4=O)cc32)cc1 [Example 27] with SETVI Foxtail, Green and state it. 9.0

Recall the recorded SETVI herbicidal rating for C#CCOC(=O)COc1ccc(C)cc1-n1nnc2cc(F)c(-n3c(=O)cc(C(F)(F)F)n(C)c3=O)cc21 [Example 40] with SETVI Foxtail, Green and state it. 4.0

Recall the recorded SETVI herbicidal rating for C#CCOC(=O)COc1ccc(C)c(-n2nnc3cc(F)c(-n4c(=O)cc(C(F)(F)F)n(C)c4=O)cc32)c1 [Example 36] with SETVI Foxtail, Green and state it. 0.0

Recall the recorded SETVI herbicidal rating for Cc1cc(O)ccc1-n1nnc2cc(F)c(-n3c(=O)cc(C(F)(F)F)n(C)c3=O)cc21 [Example 33] with SETVI Foxtail, Green and state it. 0.0

Recall the recorded SETVI herbicidal rating for Cc1ccc(-n2nnc3cc(F)c(-n4c(=O)cc(C(F)(F)F)n(C)c4=O)cc32)cc1C [Example 23] with SETVI Foxtail, Green and state it. 8.0

Recall the recorded SETVI herbicidal rating for C=CCOc1ccc(C)cc1-n1nnc2cc(F)c(-n3c(=O)cc(C(F)(F)F)n(C)c3=O)cc21 [Example 42] with SETVI Foxtail, Green and state it. 7.0

Recall the recorded SETVI herbicidal rating for COc1ccc(-n2nnc3cc(F)c(-n4c(=O)cc(C(F)(F)F)n(C)c4=O)cc32)c(C)c1 [Example 24] with SETVI Foxtail, Green and state it. 0.0

Recall the recorded SETVI herbicidal rating for COC(=O)COc1ccccc1-n1nnc2cc(F)c(-n3c(=O)cc(C(F)(F)F)n(C)c3=O)cc21 [Example 35] with SETVI Foxtail, Green and state it. 1.5

Recall the recorded SETVI herbicidal rating for COc1ccc(C)cc1-n1nnc2cc(F)c(-n3c(=O)cc(C(F)(F)F)n(C)c3=O)cc21 [Example 18] with SETVI Foxtail, Green and state it. 9.0

Recall the recorded SETVI herbicidal rating for Cc1ccc(OCC(=O)O)cc1-n1nnc2cc(F)c(-n3c(=O)cc(C(F)(F)F)n(C)c3=O)cc21 [Example 37] with SETVI Foxtail, Green and state it. 0.0

Recall the recorded SETVI herbicidal rating for CCc1ccccc1-n1nnc2cc(F)c(-n3c(=O)cc(C(F)(F)F)n(C)c3=O)cc21 [Example 25] with SETVI Foxtail, Green and state it. 3.5

---

- Test system: ABUTH Velvetleaf
- test.protocol: Preemergence herbicidal evaluation, ABUTH
- Assay type: in vivo, Abutilon theophrasti, Medic.
- Design: scale not given here
- condition.label: preemergence, rate 0.032 kg/ha
- Excerpt: The preemergence herbicidal activity of the test compounds of the present invention is exemplified by the following tests in which the seeds of a variety of monocotyledonous and dicotyledonous plants are separately mixed with potting soil and planted on top of approximately one inch of soil in separate pint cups. […] The treated cups are then placed on greenhouse benches, watered and cared for in accordance with conventional greenhouse procedures. […]
I'd appreciate it if you could supply ABUTH herbicidal rating values for the items below.
Output: the number by itself.

Recorded ABUTH herbicidal rating of `C=CCOc1ccc(-n2nnc3cc(F)c(-n4c(=O)cc(C(F)(F)F)n(C)c4=O)cc32)c(C)c1` , please. 1.0

Recorded ABUTH herbicidal rating of `C#CCOC(=O)COc1ccc(C)c(-n2nnc3cc(F)c(-n4c(=O)cc(C(F)(F)F)n(C)c4=O)cc32)c1` , please. 1.5

Recorded ABUTH herbicidal rating of `COCc1ccccc1-n1nnc2cc(F)c(-n3c(=O)cc(C(F)(F)F)n(C)c3=O)cc21` , please. 9.0

Recorded ABUTH herbicidal rating of `COc1ccc(-n2nnc3cc(F)c(-n4c(=O)cc(C(F)(F)F)n(C)c4=O)cc32)c(C)c1` , please. 6.0

Recorded ABUTH herbicidal rating of `Cc1cc(O)ccc1-n1nnc2cc(F)c(-n3c(=O)cc(C(F)(F)F)n(C)c3=O)cc21` , please. 0.0

Recorded ABUTH herbicidal rating of `COc1ccc(C)cc1-n1nnc2cc(F)c(-n3c(=O)cc(C(F)(F)F)n(C)c3=O)cc21` , please. 9.0

Recorded ABUTH herbicidal rating of `Cc1ccc(O)c(-n2nnc3cc(F)c(-n4c(=O)cc(C(F)(F)F)n(C)c4=O)cc32)c1` , please. 0.0
